The reported numbers originate from BigSolDB 2.1.

Details: in acetone, 295.75 K
Metric Name: solubility (mole fraction)
Answers are plain numbers.

Suppose we examine the molecule O=P1(O)OCC2(CO1)COP(=O)(O)OC2 (stereo unspecified) ; what solubility (mole fraction) value has been reported? 0.004

###

Conditions: in benzene, 328.16 K
Please provide measured solubility (mole fraction) for the entries that follow.
Numbers only.

1) O=P1(O)OCC2(CO1)COP(=O)(O)OC2 (stereo not drawn); 0.00123
2) O=P(O)(CO)c1ccccc1; 0.0032

Proceed to the following item.
Suppose we examine the compound `O=C(O)CCP(=O)(O)c1ccccc1` ; what solubility (mole fraction) value has been reported? 0.00145

###

Details: in ethanol, 293.16 K
Metric Name: solubility (mole fraction)
One number for each entry.

Suppose we examine the molecule `COc1ccc(P(c2ccc(OC)cc2)c2ccc(OC)cc2)cc1` ; what solubility (mole fraction) value has been reported? 0.00084
